- SYSTEM: 5-lipoxygenase (Rattus norvegicus, UniProt P12527)
- Construct: The supernatant was used as the enzyme solution of 5-lipoxygenase; from tissue; host or cells: peritoneal polymorphonuclear leukocytes (PMNL) of glycogen-injected Wistar-King rats, homogenate supernatant
- Sequence (P12527 1-673): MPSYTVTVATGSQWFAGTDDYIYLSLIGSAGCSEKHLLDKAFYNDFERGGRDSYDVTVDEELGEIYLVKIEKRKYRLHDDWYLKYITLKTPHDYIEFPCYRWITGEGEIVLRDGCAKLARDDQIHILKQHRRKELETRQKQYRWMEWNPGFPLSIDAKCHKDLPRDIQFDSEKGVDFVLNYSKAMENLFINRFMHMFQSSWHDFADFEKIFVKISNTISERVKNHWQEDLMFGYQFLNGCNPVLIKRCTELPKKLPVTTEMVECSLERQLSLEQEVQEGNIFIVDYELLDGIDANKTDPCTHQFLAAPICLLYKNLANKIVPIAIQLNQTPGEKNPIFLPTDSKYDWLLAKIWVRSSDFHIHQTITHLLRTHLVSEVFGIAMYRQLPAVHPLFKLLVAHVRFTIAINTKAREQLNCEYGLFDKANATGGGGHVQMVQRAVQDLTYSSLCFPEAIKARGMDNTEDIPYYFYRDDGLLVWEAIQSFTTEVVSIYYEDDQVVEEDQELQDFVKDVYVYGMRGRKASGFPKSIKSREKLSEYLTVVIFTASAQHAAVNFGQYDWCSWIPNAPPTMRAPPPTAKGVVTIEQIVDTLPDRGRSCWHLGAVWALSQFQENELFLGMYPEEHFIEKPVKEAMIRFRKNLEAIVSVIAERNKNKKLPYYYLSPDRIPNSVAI
- MEASUREMENT DESCRIPTION: Test of 5-Lipoxygenase Inhibitory Activity (rat PMNL enzyme, radiolabelled arachidonic acid, TLC)
- Format: biochemical, Wistar-King rats
PARAMETER: IC50 (µM)
Report only the number, with the unit µM understood.

>>> print(df.to_string())
                                   molecule  measured_number
0  O=C(/C=C/c1ccc(O)c(O)c1)O[C@H](Cc1ccc(O)c(O)c1)C(=O)O [Comparison 1, rosemarinic acid, reference compound]              6.2

Request: Form field: reported IC50 of O=C(O)/C=C/c1ccc(O)c(O)c1 [Comparison 5, caffeic acid, reference compound]
Result: 72
